assay_name: NCI Yeast Anticancer Drug Screen. Data for the mlh1 rad18 strain (AID 175)
test_settings: S. cerevisiae mlh1 rad18 strain growth inhibition; at 50.0 µM (retest, dose inferred, filed as 5.0); active compounds read high
Compounds without any hit were thinned out: in the full panel of roughly 79,000, 15% have a hit.
Give TRUE when the value for growth inhibition is at least 90%. Give FALSE when it is less.

Does the reported growth inhibition for O=C(C#Cc1ccccc1)/C=C/c1ccccc1 fall at or above the 90% mark?
FALSE

Let us now turn to O=S(=O)(NNc1ccccc1)c1ccccc1
FALSE

Let us now turn to O=C1c2ccccc2N2OC3(N4CCCC4)CCCCC3C12c1ccccc1 (configuration not stated)
FALSE
